- system-name: NACHT, LRR and PYD domains-containing protein 3 (Homo sapiens, UniProt Q96P20)
- Sequence (Q96P20 whole entry, the tested form may be a part): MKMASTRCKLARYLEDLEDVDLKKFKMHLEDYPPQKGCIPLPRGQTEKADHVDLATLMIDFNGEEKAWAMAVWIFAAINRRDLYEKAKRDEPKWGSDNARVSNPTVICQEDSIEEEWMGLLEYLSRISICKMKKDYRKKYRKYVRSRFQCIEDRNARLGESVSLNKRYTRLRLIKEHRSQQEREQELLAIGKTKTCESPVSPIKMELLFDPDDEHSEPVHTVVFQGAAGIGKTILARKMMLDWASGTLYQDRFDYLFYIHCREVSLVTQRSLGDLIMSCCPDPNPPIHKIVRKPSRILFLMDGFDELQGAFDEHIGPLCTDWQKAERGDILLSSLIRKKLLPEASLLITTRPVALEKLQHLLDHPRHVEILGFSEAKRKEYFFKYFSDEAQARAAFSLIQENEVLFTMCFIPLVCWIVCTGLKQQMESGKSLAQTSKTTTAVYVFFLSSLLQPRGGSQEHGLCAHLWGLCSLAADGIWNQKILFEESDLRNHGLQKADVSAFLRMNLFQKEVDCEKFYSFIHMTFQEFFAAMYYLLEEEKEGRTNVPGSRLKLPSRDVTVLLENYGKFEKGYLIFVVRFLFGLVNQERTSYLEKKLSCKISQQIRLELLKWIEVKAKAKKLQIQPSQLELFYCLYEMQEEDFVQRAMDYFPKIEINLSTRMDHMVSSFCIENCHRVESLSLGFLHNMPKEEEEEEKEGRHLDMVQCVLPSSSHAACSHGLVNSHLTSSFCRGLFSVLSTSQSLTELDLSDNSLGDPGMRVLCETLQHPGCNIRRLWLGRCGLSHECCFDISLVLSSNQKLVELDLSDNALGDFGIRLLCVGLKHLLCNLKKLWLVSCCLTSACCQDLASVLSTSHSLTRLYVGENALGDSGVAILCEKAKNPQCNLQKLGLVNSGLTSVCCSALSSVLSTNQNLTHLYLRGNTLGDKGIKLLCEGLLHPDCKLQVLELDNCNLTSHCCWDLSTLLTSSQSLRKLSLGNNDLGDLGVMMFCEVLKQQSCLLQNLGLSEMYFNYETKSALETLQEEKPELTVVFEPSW
- experiment-description: Inhibition of NLRP3 inflammasome (unknown origin) activation in LPS-primed bone marrow derived macrophage cells assessed as effect on IL-1beta production in presence of nigericin by ELISA
measure: pIC50
Here pIC50 is given on a logarithmic scale as minus log10 of the concentration in mol/L.

Reference set (5 entries):
If you can, please state the reported pIC50 value of `O=C1/C(=C/c2ccc(-c3nnn[nH]3)cc2)SC(=S)N1CCCc1cccc(C(F)(F)F)c1` .
5.31

What pIC50 value was documented for this molecule, `O=C1S/C(=C\c2ccc(-c3nnn[nH]3)cc2)C(=O)N1Cc1cccc(C(F)(F)F)c1` ?
5.25

Item under review: `O=C(O)c1ccc(/C=C2\SC(=S)N(CCc3cccc(C(F)(F)F)c3)C2=O)cc1` . Reported pIC50?
5.23

For the molecule `O=C(c1ccc(/C=C2\SC(=S)N(c3cccc(OC(F)(F)F)c3)C2=O)cc1)N1CCOCC1` , what pIC50 is on record?
5.50

Look up pIC50: `CN1CCN(C(=O)c2ccc(/C=C3\SC(=S)N(c4cccc(C(F)(F)F)c4)C3=O)cc2)CC1`
5.57

// moving on: another record for pIC50
Entry `O=C(O)c1ccc(/C=C2\SC(=O)N(Cc3cccc(C(F)(F)F)c3)C2=O)cc1` : reported pIC50 = ?
5.22

---

Reported CLhep predicted values are given for each entry in this list.
- experiment-description: Clearance in human liver microsomes in presence of NADPH
- Assay type: ADME, Microsome
All answers are understood in mL/min/kg, so give the number only.

Could you share which CLhep predicted value was measured for CC(C)NCC(O)COc1cccc2ccccc12 (stereo not given) ?
15.3

New cases:
Can you share its CLhep predicted? I mean this compound: `CN1CCN(C(=O)c2ccc(/C=C3\SC(=S)N(c4cccc(C(F)(F)F)c4)C3=O)cc2)CC1`
15.3

Query (compound): `C[C@]12CC[C@H]3[C@@H](CCC4=CC(=O)CC[C@@]43C)[C@@H]1CC[C@@H]2O` ; field requested: CLhep predicted
2.8

Given the compound `CN1CCN(C(=O)c2ccc(/C=C3\SC(=S)N(c4cccc([N+](=O)[O-])c4)C3=O)cc2)CC1` , what is its reported CLhep predicted?
15.8

# query: CLhep predicted of entry `O=C(O)c1ccc(/C=C2\SC(=S)N(c3cccc(C(F)(F)F)c3)C2=O)cc1`
2.8

# lookup: CLhep predicted of `O=C(c1ccc(/C=C2\SC(=S)N(c3cccc(OC(F)(F)F)c3)C2=O)cc1)N1CCOCC1`
3.9

Given the entry `O=C(c1ccc(/C=C2\SC(=S)N(c3cccc(C(F)(F)F)c3)C2=O)cc1)N1CCC(O)CC1` , report its measured CLhep predicted.
10.3

For `CN1CCN(C(=O)c2ccc(/C=C3\SC(=S)N(c4cccc(OC(F)(F)F)c4)C3=O)cc2)CC1` , what is its reported CLhep predicted?
12.8

---

- system-name: NACHT, LRR and PYD domains-containing protein 3 (Homo sapiens, UniProt Q96P20)
- experiment-description: Inhibition of NLRP3 inflammasome (unknown origin) activation in LPS-primed bone marrow derived macrophage cells at 10 uM in presence of mono sodium urate relative to control
Here the recorded inhibition is given for each entry.
Please give a number only; it is taken to be in %.

For NACHT, LRR and PYD domains-containing protein 3 (Homo sapiens, UniProt Q96P20), provide inhibition of `O=C(c1ccc(/C=C2\SC(=S)N(c3cccc(OC(F)(F)F)c3)C2=O)cc1)N1CCOCC1` please.
75

Give inhibition (NACHT, LRR and PYD domains-containing protein 3 (Homo sapiens, UniProt Q96P20)) of the following compound: `O=C1/C(=C/c2ccc(-c3nnn[nH]3)cc2)SC(=S)N1CCc1cccc(C(F)(F)F)c1`
67

Observed inhibition on NACHT, LRR and PYD domains-containing protein 3 (Homo sapiens, UniProt Q96P20) for `CN1CCN(C(=O)c2ccc(/C=C3\SC(=S)N(Cc4cccc(C(F)(F)F)c4)C3=O)cc2)CC1` , please.
35

Given the entry `O=C(Nc1ccccc1)c1ccc(/C=C2\SC(=S)N(c3cccc(C(F)(F)F)c3)C2=O)cc1` , what inhibition was observed with NACHT, LRR and PYD domains-containing protein 3 (Homo sapiens, UniProt Q96P20)?
32

Query inhibition on NACHT, LRR and PYD domains-containing protein 3 (Homo sapiens, UniProt Q96P20) for `O=C(O)c1ccc(/C=C2\SC(=S)N(Cc3cccc(OC(F)(F)F)c3)C2=O)cc1`
29

Requested read-out inhibition, target or system NACHT, LRR and PYD domains-containing protein 3 (Homo sapiens, UniProt Q96P20), entry `O=C(O)c1ccc(/C=C2\SC(=S)N(Cc3ccc(-c4ccccc4)cc3)C2=O)cc1`
73
